- Tested on: Mucor
- EXPERIMENT_DESCRIPTION: Antimicrobial activity against Mucor sp. after 24 hrs
- Format: functional
Listed below: MIC50 values for each entry.

Below: 3 compounds and their reported MIC50.
C[C@@H](c1ncncc1F)[C@](O)(Cn1cncn1)c1ccc(F)cc1F; > 8 µg/mL
OC(Cn1cncn1)(Cn1cncn1)c1ccc(F)cc1F; > 64 µg/mL
CC[C@H](C)C[C@H](C)CCCCCCCCC(=O)N[C@H]1C[C@@H](O)[C@@H](NCCN)NC(=O)[C@@H]2[C@@H](O)CCN2C(=O)[C@H]([C@H](O)CCN)NC(=O)[C@H]([C@H](O)[C@@H](O)c2ccc(O)cc2)NC(=O)[C@@H]2C[C@@H](O)CN2C(=O)[C@H]([C@@H](C)O)NC1=O; > 16 µg/mL

We next turn to a different compound, shown below.
[ask] I'm curious: which MIC50 was measured for Nc1nc(=O)[nH]cc1F tested on Mucor?
[reply] > 64 µg/mL
